Where do these numbers come from? They come from the supplement of paper PMC12645437.

Target: T1, CRBN, Q96SW2;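 also: pooled lentiviral library of zinc finger degron-EGFP fusions in mCherry-positive Jurkat cells, FACS-sorted after compound exposure, with degron abundance counted by next-generation sequencing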
T1 chain: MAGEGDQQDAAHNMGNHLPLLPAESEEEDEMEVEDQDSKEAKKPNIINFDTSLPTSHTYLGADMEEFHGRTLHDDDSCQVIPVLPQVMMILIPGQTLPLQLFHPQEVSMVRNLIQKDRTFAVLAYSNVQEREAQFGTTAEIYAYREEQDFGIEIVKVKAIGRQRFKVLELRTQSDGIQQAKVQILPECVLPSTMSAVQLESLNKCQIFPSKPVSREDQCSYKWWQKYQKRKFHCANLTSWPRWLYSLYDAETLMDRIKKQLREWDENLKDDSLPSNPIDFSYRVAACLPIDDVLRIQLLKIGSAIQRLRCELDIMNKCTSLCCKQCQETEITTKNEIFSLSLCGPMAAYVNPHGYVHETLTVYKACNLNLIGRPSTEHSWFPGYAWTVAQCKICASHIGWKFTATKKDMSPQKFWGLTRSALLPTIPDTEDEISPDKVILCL
Test: log2 fold change of degron read counts, EGFP-low vs EGFP+ sorted cells (limma voom), compound-induced degradation; higher = more compound-induced degradation of the degron-EGFP fusion; degrons are variants of IKZF1/3 zinc finger 2; compound dose not given here
Settings: Jurkat; 18 h; compound: compound 22 (5-morpholino-thalidomide)
Over roughly 8,300 sequences, “log2 fold change of degron read counts, EGFP-low vs EGFP+ sorted cells (limma voom), compound-induced degradation” has its median near -1.1; the highest 2% begin near 3.2. The full list was thinned out, with the highest values kept by preference.
Label Criterion not met if log2 fold change of degron read counts falls below -2; label Criterion met in every other case.

Observe how each entry below is paired with its result.
# sequence.text, assigned.label
records = [
    ("FYCEICGRYFTQKGNLLRHIKL [46F_47Y_49E_50I_52G_53R_54Y_55F_67L_, Q9UKT9]", "Criterion met"),
    ("FNCPICGAPFTQKGNLLRHIKL [46F_47N_49P_50I_52G_53A_54P_55F_67L_, Q9UKT9]", "Criterion met"),
    ("FDCNVCGAFFTQKGNLLRHIKL [46F_47D_49N_50V_52G_53A_54F_55F_67L_, Q9UKT9]", "Criterion not met"),
]

hey, is log2 fold change of degron read counts for this one >= -2? FLCNVCGASFTQKGNLLRHIKL [46F_47L_49N_50V_52G_53A_54S_55F_67L_, Q9UKT9]
Criterion met

Does log2 fold change of degron read counts meet or surpass -2 for FGCDVCGAEFTQKGNLLRHIKL [46F_47G_49D_50V_52G_53A_54E_55F_67L_, Q9UKT9] ?
Criterion met

Say whether FECPICGAPFTQKGNLLRHIKL [46F_47E_49P_50I_52G_53A_54P_55F_67L_, Q9UKT9] shows log2 fold change of degron read counts of -2 or more.
Criterion met

Does the sequence FNCPQCGANFTQKGNLLRHIKL [46F_47N_49P_50Q_52G_53A_54N_55F_67L_, Q9UKT9] have recorded log2 fold change of degron read counts that is -2 or more?
Criterion not met
